The origin of these recorded values is patent US20180282281A1.

Molecular target: human IDO1 (Homo sapiens, UniProt P14902)
Construct: expressed in transfected cells
Sequence (P14902 whole entry): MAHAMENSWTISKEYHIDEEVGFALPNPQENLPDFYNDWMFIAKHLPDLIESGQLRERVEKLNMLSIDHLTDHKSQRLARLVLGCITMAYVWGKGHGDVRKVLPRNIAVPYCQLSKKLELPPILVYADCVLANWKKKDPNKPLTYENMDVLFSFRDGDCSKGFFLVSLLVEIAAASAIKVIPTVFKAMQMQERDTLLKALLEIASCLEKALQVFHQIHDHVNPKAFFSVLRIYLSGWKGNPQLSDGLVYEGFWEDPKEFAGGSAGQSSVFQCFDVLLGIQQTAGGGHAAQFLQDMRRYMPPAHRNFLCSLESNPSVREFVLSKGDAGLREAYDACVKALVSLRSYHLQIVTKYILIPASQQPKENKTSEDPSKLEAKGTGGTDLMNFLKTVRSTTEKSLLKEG
Experiment: HEK293 human IDO1 cell-based IDO inhibition assay
Settings: read-out: HEK Human IDO-1 Potency
Protocol: 1HEK293 cells were transfected with a pCDNA-based mammalian expression vector harboring human IDO1 cDNA (NM 002164.2) by electroporation. They were cultured in medium (DMEM with 10% FBS) containing 1 mg/ml G418 for two weeks. […] The compound treatments were stopped by adding Trichloroacetic Acid (Sigma-Aldrich) to a final concentration at 0.2%. […] The absorbance at 490 nm was measured on Envision plate reader.
pIC50: −log10 of the molar value.
Measurement Name: pIC50

Given item O=C(CC1CCN(c2ccnc3ccc(F)cc23)CC1)Nc1ccc(F)cc1 [Example 115] , the value recorded as its pIC50 is < 6.60

For reference, reported pIC50 for Cc1cccc(NC(=O)[C@H](C)[C@H]2CC[C@@H](c3ccnc4ccc(F)cc43)CC2)c1 [Example 72] stands at > 7.30

Per the record, O=C(CC1CCN(c2ccnc3ccc(F)cc23)CC1)Nc1ccc(Br)cc1 [Example 117] has pIC50 of < 6.60

GET /value?item= CCC(C(=O)Nc1ccc(Cl)cc1)[C@H]1CC[C@@H](Oc2cc(C(F)(F)F)nc3ccccc23)CC1 (mixture of isomers) [Example 88] &field=pIC50 returns > 7.30

// recorded pIC50 for CCC(C(=O)Nc1ccc(Cl)cc1)[C@H]1CC[C@H](Oc2ccnc3cc(C(F)(F)F)ccc23)CC1 (single isomer, unassigned) [Example 83a] : < 6.60

Lab note: measured pIC50 of CC(C(=O)Nc1ccc(Cl)cc1)C1CCC(c2ccnc3ncccc23)CC1 (racemic) [Example 147] was > 7.30

In plain terms, CCOc1ccc(NC(=O)C(C)N2CCC(Oc3ccnc4ccc(F)cc34)CC2)cc1 (centres unmarked) [compound 108] has a documented pIC50 of > 6.60

Given item CCC(C(=O)Nc1ccc(Cl)cc1)[C@H]1CC[C@@H](Oc2cc(C(F)(F)F)nc3ccccc23)CC1 (single isomer, unassigned) [Example 88b] , the value recorded as its pIC50 is > 6.60

So for C[C@@H](C(=O)Nc1ccc(Cl)cc1O)[C@H]1CC[C@@H](c2ccnc3ccc(F)cc32)CC1 [Example 238] , the logged pIC50 turned out to be > 7.30

Record C[C@@H](C(=O)Nc1ccc(Cl)c(Cl)c1)[C@H]1CC[C@@H](c2ccnc3ccc(F)cc32)CC1 [Example 66] , field pIC50: > 7.30

pIC50 measured on COCC(C(=O)Nc1ccc(F)cc1)N1CCN(c2ccnc3ccc(F)cc23)CC1 (racemic) [Example 134] = > 6.60

# pIC50 (compound: CCC(C(=O)Nc1ccccc1)N1CCN(c2ccnc3ccc(F)cc23)CC1 (racemic) [Example 132] ) is < 6.60

Short answer for CCCC(C(=O)NC1(C)CCCCC1)N1CCN(c2ccnc3ccc(F)cc23)CC1 (single isomer, unassigned) [Example 248] : pIC50 was < 6.60

The measured pIC50 associated with C[C@H](C(=O)Nc1ccc(Cl)cc1)[C@H]1CC[C@@H](c2ccnc3ncccc32)CC1 (single isomer, unassigned) [Example 148a] reads < 6.60

====

Exercise: for every item that follows, state its recorded pIC50.
Molecular target: human IDO1 (Homo sapiens)
Construct: expressed in transfected cells
Test: HEK293 human IDO1 cell-based IDO inhibition assay
Settings: read-out: HEK Human IDO-1 Potency
pIC50: −log10 of the molar value.

Field pIC50 (entry CCC(C(=O)Nc1ccc(Cl)cc1)[C@H]1CC[C@H](Oc2ccnc3c(C(F)(F)F)cccc23)CC1 (stereo partly drawn) [Example 86] ) reads > 7.30

The measured pIC50 associated with CCC(C(=O)Nc1ccc(Cl)cc1)N1CCN(c2ccnc3ccc(F)cc23)CC1 (racemic) [Example 131] reads > 7.30

response.value for CCC(C(=O)Nc1ccc(Cl)cc1)[C@H]1CC[C@H](Oc2ccnc3cc(C(F)(F)F)ccc23)CC1 (single isomer, unassigned) [Example 83b] (field: pIC50) = > 6.60

// pIC50 value for C[C@H](C(=O)Nc1ccc(Cl)cc1)[C@H]1CC[C@H](c2ccnc3cn[nH]c32)CC1 (single isomer, unassigned) [Example 150c] : < 6.60

Consider CCC(C(=O)Nc1ccc(Cl)cc1)N1CCC(Oc2ccnc3ccc(F)cc23)CC1 (stereo not drawn) [compound 111] . Its measured pIC50 is > 6.60

Form: molecule = CC(C(=O)O)c1ccc(C[C@@H](C(=O)Nc2ccc(C#N)cc2)[C@H]2CC[C@@H](c3ccnc4ccc(F)cc43)CC2)cc1 (stereo partly drawn) [Example 140] ; pIC50 = > 7.30

====

Target: human IDO1 (Homo sapiens)
Construct: expressed in transfected cells
Test: HEK293 human IDO1 cell-based IDO inhibition assay
Details: read-out: HEK Human IDO-1 Potency
pIC50: −log10 of the molar value.
Measurement Name: pIC50

The molecule listed as C[C@@H](C(=O)Nc1ccc(Cl)cc1)[C@H]1CC[C@H](c2ccnc3ccnn32)CC1 (single isomer, unassigned) [Example 144d] shows pIC50 equal to < 6.60

Per the record, `C[C@@H](C(=O)Nc1cccc(C(F)(F)F)c1)[C@H]1CC[C@@H](c2ccnc3ccc(F)cc32)CC1` has pIC50 of > 7.30

Entry `C[C@@H](C(=O)N(C)c1ccccc1)[C@H]1CC[C@@H](c2ccnc3ccc(F)cc32)CC1` — recorded pIC50 = < 6.60

# pIC50 of `CC1(CC(=O)NC2(C)CCCCC2)CCN(c2ccnc3ccc(F)cc23)CC1` = > 7.30

====

For each of the compounds below, state its IC50.
Target: human IDO1 (Homo sapiens, UniProt P14902)
Construct: expressed in transfected cells
Test: HEK293 human IDO1 cell-based IDO inhibition assay
Settings: read-out: HEK Human IDO-1 Potency

GET /value?item= CCC(C(=O)Nc1ccc(Cl)cc1)N1CCC(Oc2ccnc3ccc(F)cc23)CC1 (stereo not drawn) [compound 98] &field=IC50 returns < 250 nM

// IC50 value for C[C@@H](C(=O)Nc1ccc(Cl)cc1)[C@H]1CC[C@@H](c2ccnc3c2ncn3C)CC1 (single isomer, unassigned) [Example 251b] : > 250 nM

// recorded IC50 for CCC(C(=O)Nc1ccc(Cl)cc1)[C@H]1CC[C@@H](Oc2cc(C(F)(F)F)nc3ccccc23)CC1 (single isomer, unassigned) [Example 88a] : < 50 nM

Item: CC(C(=O)Nc1ccc(Cl)cc1)N1CCC(Oc2ccnc3ccc(F)cc23)CC1 (racemic) | IC50: < 50 nM

IC50 for C[C@@H](C(=O)Nc1ccc(Cl)cc1)[C@H]1CC[C@H](c2ccnc3cn[nH]c32)CC1 (single isomer, unassigned) [Example 150d] is < 50 nM

According to the records, this compound CCC(C(=O)Nc1ccc(Cl)cc1)[C@H]1CC[C@H](Oc2cc(C(F)(F)F)nc3ccccc23)CC1 (mixture of isomers) displays IC50 of > 250 nM

====

Target: human IDO1 (Homo sapiens)
Construct: expressed in transfected cells
Assay: HEK293 human IDO1 cell-based IDO inhibition assay
Conditions: read-out: HEK Human IDO-1 Potency
pIC50: −log10 of the molar value.
For each record, write down the corresponding pIC50.

Record for C[C@@H](C(=O)Nc1nccs1)[C@H]1CC[C@@H](c2ccnc3ccc(F)cc32)CC1 [Example 75] under target or system human IDO1 (Homo sapiens): pIC50 reported as > 6.60

Noted pIC50 for COc1ncc(NC(=O)CC2(C)CCN(c3ccnc4ccc(F)cc34)CC2)cn1 [Example 124] , tested on human IDO1 (Homo sapiens): < 6.60

The compound COCC(C(=O)Nc1ccc(Cl)cc1)N1CCN(c2ccnc3ccc(F)cc23)CC1 (racemic) [Example 133] , tested on human IDO1 (Homo sapiens), showed pIC50 of < 6.60

Query C[C@@H](C(=O)Nc1ccc(Cl)cc1)[C@H]1CC[C@@H](c2ccnc3cn[nH]c32)CC1 (single isomer, unassigned) [Example 150b] on human IDO1 (Homo sapiens); pIC50 returned: < 6.60

Sample C[C@@H](C(=O)Nc1cccnc1)[C@H]1CC[C@@H](c2ccnc3ccc(F)cc32)CC1 [Example 76] , system: human IDO1 (Homo sapiens). Its pIC50 is > 7.30

Measured pIC50 (human IDO1 (Homo sapiens)), entry CC(C(=O)O)c1ccc(C[C@@H](C(=O)Nc2ccc(Cl)cc2)[C@H]2CC[C@@H](c3ccnc4ccc(F)cc43)CC2)cc1 (mixture of isomers) [Example 137] : > 7.30

pIC50 of O=C(CC1CCN(Cc2ccnc3ccccc23)CC1)Nc1ccc(F)cc1 [Example 114] , assay on human IDO1 (Homo sapiens), is > 6.60

Entry C[C@@H](C(=O)NC1CC2CCC1C2)[C@H]1CC[C@@H](c2ccnc3ccc(F)cc32)CC1 (stereo partly shown) [Example 240] : pIC50 on human IDO1 (Homo sapiens) = > 6.60

Short answer on human IDO1 (Homo sapiens) for Cc1cc(F)ccc1NC(=O)[C@H](C)[C@H]1CC[C@@H](c2ccnc3ccc(F)cc32)CC1 [Example 59] , pIC50: < 6.60

Test item CC(C(=O)Nc1ccc(F)cc1)N1CCC(Oc2ccnc3ccc(F)cc23)CC1 (single isomer, unassigned) [compound 106] ; human IDO1 (Homo sapiens); reported pIC50 was < 6.60

Item O=C(CN1CCC(Oc2ccnc3ccc(F)cc23)CC1)Nc1ccc(Cl)cc1 [Example 95] was tested on human IDO1 (Homo sapiens); the reported pIC50 is > 6.60

The reported human IDO1 (Homo sapiens) pIC50 of COC(=O)c1cccc(NC(=O)[C@H](C)[C@H]2CC[C@@H](c3ccnc4ccc(F)cc43)CC2)c1 [Example 67] is > 7.30

Lab entry: human IDO1 (Homo sapiens) assay, compound CCC(C(=O)Nc1ccc(Cl)cc1)[C@H]1CC[C@H](Oc2ccnc3cc(C(F)(F)F)ccc23)CC1 (mixture of isomers) [Example 83] , pIC50 = > 6.60

Record for CCOc1ccccc1NC(=O)[C@H](C)[C@H]1CC[C@@H](c2ccnc3ccc(F)cc32)CC1 [Example 62] under target or system human IDO1 (Homo sapiens): pIC50 reported as > 6.60

Item CC(C(=O)Nc1ccc(Cl)cc1)[C@]1(F)CC[C@H](c2ccnc3ccc(F)cc32)CC1 (mixture of isomers) [Example 233] was tested on human IDO1 (Homo sapiens); the reported pIC50 is > 7.30

Item C[C@H](C(=O)Nc1ccc(Cl)cc1)[C@H]1CC[C@@H](c2ccnc3ccnn32)CC1 (single isomer, unassigned) [Example 144a] ; assay system human IDO1 (Homo sapiens); pIC50 reported as > 7.30

Assay human IDO1 (Homo sapiens), sample CC1(CC(=O)Nc2ccc(Cl)cc2)CCN(c2ccnc3ccc(F)cc23)CC1 [Example 123] , pIC50 read: > 7.30

Log: human IDO1 (Homo sapiens), compound C[C@@H](C(=O)Nc1cccc(Oc2ccccc2)c1)[C@H]1CC[C@@H](c2ccnc3ccc(F)cc32)CC1 [Example 73] , pIC50 = > 6.60

I looked up O=C(CC1CCN(Cc2ccnc3ccccc23)CC1)Nc1ccc(Cl)cc1 [Example 113] and its pIC50 for human IDO1 (Homo sapiens) was > 7.30
